Cited source: PubChem BioAssay (NCI)

Tested on: NCI-H460 lung
Classes to choose from: yes for active, no for inactive

Would you please look over these solved cases?
compound	target.or.system	classification
COc1cccc(C2=C(c3cn(C)c4cccc(OC)c34)C(=O)NC2=O)c1	NCI-H460 lung	no
Cc1cc(S(=O)(=O)Nc2nc3cc(Cl)ccc3o2)c(SCc2ccccc2)cc1Cl	NCI-H460 lung	no
OC(COc1cccc2ccccc12)CN1CCN(c2ccccc2Cl)CC1 (stereo not drawn)	NCI-H460 lung	no

Q: Fill in: this test's call for "CN1CCN(CCOc2ccc(-c3cnc4c(-c5ccc(F)cc5)cnn4c3)cc2)CC1" is ___
A: no

Q: Would you mind telling me which call this test gave "C#CCN(Cc1nc2cc(C(F)(F)F)ccc2nc1-c1ccccc1)c1ccc(F)c(F)c1" ?
A: no

Q: Outcome logged for "CCOC(=O)/C(C#N)=C/Nc1ccc(-c2nc3ccccc3[nH]2)cc1" in this assay:
A: no

Q: What call does the record list for "COc1ccc2c(c1)CC[C@@H]1[C@@H]2CC[C@]2(C)C=C(/C=C/C(=O)c3ccccc3)C[C@@H]12" ?
A: no

Q: What classification did "C1C[OH+]CC[OH+]CC[OH+]CC[OH+]CC[OH+]CC[OH+]1.[Cl-].[Nb+5]" end up with in this test?
A: no

Q: # outcome recorded in this test, key = "Oc1c(CN2CCOCC2)cc(COCc2ccccc2)c2cccnc12"
A: no

Q: Assay outcome for "COc1ccc(/C=N/N=C(\[O-])c2ccncc2)cc1F.COc1ccc(/C=N\N=C(/[O-])c2ccncc2)cc1F.[Cu+2]" : what was it?
A: no

Q: How did this test come out for "N#Cc1cccc(OCc2ccccc2COc2cccc(C#N)c2)c1" ?
A: no

* * *

Test system: HOP-62 NSCLC
Assay: NCI tumour cell line growth inhibition, 48 h; in the data active = GI50 below about 0.43 µM; inactive = the rest
Outcome (select one): T for active, F for inactive

Q: Which outcome was assigned to "CN(C)CCNc1nc2ccccc2c2c(=O)c3ccccc3sc12" in this test?
A: F

Q: Could you check what this test reported for "c1ccc2nc(OCCN3CC3)ccc2c1" ?
A: F

Q: Recorded call for COc1cc([C@@H]2c3cc4c(cc3C(OC3O[C@@H]5COC(C)O[C@H]5[C@H](O)[C@H]3O)C3COC(=O)[C@@H]32)OCO4)cc(OC)c1O (stereo partly specified) ?
A: F

Q: # lookup: test call for "Cc1sc2ncn(Cc3ccc(Cl)c(Cl)c3)c(=O)c2c1C"
A: F

Q: Hi, sorry to bother you, what did the test record for "O=C(CC(=O)c1ccccc1)c1ccccc1" ?
A: F

Q: Which outcome was entered for the compound "Cn1ccnc1C[N-]Cc1nccn1C.O=[N+]([O-])[O-].O=[N+]([O-])[O-].[Cu+2]" in this test?
A: F

Q: Field: outcome | Entry: "C=CCCC(=O)N1C=CC(=O)[C@H](O)[C@@H]1/C=C/c1ccccc1"
A: F

Q: Query: recorded result category for "O=C(CCl)Nc1cc(O)c2c(c1)C(=O)c1cccc(O)c1C2=O" in this test
A: F

Q: Could you check what this test reported for "COc1ccc2c(c1)CC[C@@H]1[C@@H]2CC[C@]2(C)C=C(/C=C/C(=O)c3ccccc3)C[C@@H]12" ?
A: F

Q: Answer briefly: the call reported for "CN1CCN(CCOc2ccc(-c3cnc4c(-c5ccc(F)cc5)cnn4c3)cc2)CC1" in this assay.
A: F

Q: For "Cc1cc(S(=O)(=O)Nc2nc3cc(Cl)ccc3o2)c(SCc2ccccc2)cc1Cl" , which call appears in the assay record?
A: F

Q: Tell me the assay call for "Cn1ncc(-c2ccc3c(=O)[nH]nc(CN)c3c2)c1-c1c(F)cc2ccccc2c1C#N" please.
A: F

Q: What was the test verdict on "COc1ccc(-c2c(N)n[nH]c2-c2cc(OC)c(OC)c(OC)c2)cc1" ?
A: T

Q: Please state the recorded outcome for this compound: "Oc1c(CN2CCOCC2)cc(COCc2ccccc2)c2cccnc12"
A: F

Q: How was Nc1c(C(=O)Nc2cccc(Br)c2)sc2nc3c(cc12)C(O)CCC3 (stereo unspecified) classified in this test?
A: F
